System: HOP-62
Experiment: NCI tumour cell line growth inhibition, 48 h
Active and inactive are the calls of the source. No stated cut-off is given here; in the data, active = GI50 up to about 1.1 µM and inactive = higher.
Experimental readout: GI50

# Compound, Test system, GI50
measured = [
    ("CCOc1cc(/C=C/C=C/C=C/c2ccc(N(C)C)cc2)[s+]c2ccccc12", "HOP-62", "95.5 µM (inactive)"),
    ("C=C1C(=O)OC2CC(C)C3C=CC(=O)C3CC12 (stereo not given)", "HOP-62", "15.9 µM (inactive)"),
    ("COC1(OC)N=C(N)C2(C#N)C(C)CC(=O)N(N(C)C)C12C#N (stereo not given)", "HOP-62", "> 100 µM (inactive)"),
    ("CC(C)(C)c1ccc2c(c1)CNCCNCc1cc(C(C)(C)C)ccc1OCC1(CO2)COc2ccc(C(C)(C)C)cc2CNCCNCc2cc(C(C)(C)C)ccc2OC1", "HOP-62", "1.66 µM (inactive)"),
    ("Nc1nc(-c2ccco2)cc(-c2ccc(CO)o2)n1", "HOP-62", "> 100 µM (inactive)"),
    ("COc1ccc(/C=C2\\CCC(C)c3c2nc(N)c(C#N)c3-c2ccc(OC)c(OC)c2)cc1OC (stereo not given)", "HOP-62", "2.05 µM (inactive)"),
]

// query Report GI50 from HOP-62 testing of `COc1ccc(OC)c2c(C(=O)O)c(Cc3ccccc3)ccc12`
// result > 100 µM (inactive)

// query Report GI50 from HOP-62 testing of COCCNC(=O)C1C(=O)C(=O)N(CCOC)C1=O (stereo not given)
// result > 100 µM (inactive)

// query Report GI50 from HOP-62 testing of CSc1nc(=O)c(C#N)c(-c2ccccc2)n1C1OC(COC(C)=O)C(OC(C)=O)C(OC(C)=O)C1OC(C)=O (stereo not given)
// result > 100 µM (inactive)

// query Report GI50 from HOP-62 testing of `CCOC(=O)CNC(=O)c1nc[nH]c1/N=N/N(C)C`
// result > 100 µM (inactive)

* * *

System: MDA-MB-231
Assay: NCI tumour cell line growth inhibition, 48 h
Activity calls are given as the source filed them. Rule as the data show it: active = GI50 up to about 1.1 µM and inactive = higher.
Could you please pick one outcome from this set? 1 (yes) (active), 0 (no) (inactive)

Here's what some known entries look like.
# Compound, Label value
data = [
    ("O=C1c2c(Br)sc(Br)c2C(NC(=O)C(F)(F)F)C1O (centres undefined)", "0 (no)"),
    ("Cc1c2cccc-2c(N(C)C)cc2c1[nH]c1ccccc12", "0 (no)"),
    ("NC(=O)CCSC(CC(=O)c1ccc(Cl)cc1)c1ccc(Cl)cc1 (centres undefined)", "0 (no)"),
    ("CCN(CC)CCn1ncc2ccc3c(c(=O)c4cccnc4n3CCN(CC)CC)c21", "0 (no)"),
    ("Nc1ncnc2c1ncn2C1CCC(CP(=O)(O)O)C1 (centres undefined)", "0 (no)"),
]

Next up:
// query Identify the outcome logged in this assay for the compound shown: `CCSc1nc(N)c2c(-c3ccccc3)c3c(nc2n1)CCC3`
// result 0 (no)

* * *

Tested on: HOP-62
Assay: NCI tumour cell line growth inhibition, 48 h
Calls of active or inactive are those of the source. Rule as the data show it: active = GI50 up to about 1.1 µM and inactive = higher.
Could you please pick one outcome from this set? active, inactive

# Compound, Test system, Label value
records = [
    ("CCOc1ccccc1NC(=O)CC(C(=O)OC)C(=O)C(=O)OC (centres undefined)", "HOP-62", "inactive"),
    ("NC(=O)c1nnc2cc(F)c(F)cc2c1N", "HOP-62", "inactive"),
    ("COc1ccccc1/C=N/C12CC3CC(CC(C3)C1)C2", "HOP-62", "inactive"),
]

// query Identify the outcome logged in this assay for the compound shown: O=C(NCCCCCCNC(=O)n1cc(F)c(=O)[nH]c1=O)NCCCOCCOCCCNC(=O)C(O)C(O)C(O)C(O)CO (centres undefined)
// result inactive

// query Identify the outcome logged in this assay for the compound shown: `O=C1C=C(Nc2ccccc2C(=O)CC(=O)C(=O)Nc2ccc(Cl)cc2)c2ccccc2C1=O`
// result inactive

// query Identify the outcome logged in this assay for the compound shown: COC(=O)C(CC(=O)c1ccccc1)c1ccccc1NC(C)=O (centres undefined)
// result inactive

// query Identify the outcome logged in this assay for the compound shown: N#CC(c1ccccc1)c1nc2ccc(N)cc2[n+]([O-])c1C(C#N)c1ccccc1 (centres undefined)
// result inactive

// query Identify the outcome logged in this assay for the compound shown: `CCOC(=O)c1cc(Br)c(-c2cc(C)co2)[nH]1`
// result inactive

// query Identify the outcome logged in this assay for the compound shown: CC(C)(C)OC(=O)NC(CSCc1ccc(C(=O)c2ccccc2)cc1)C(=O)N1CCN(CCCCN2c3ccccc3Sc3cc(N=[N+]=[N-])ccc32)CC1 (centres undefined)
// result inactive

// query Identify the outcome logged in this assay for the compound shown: O=[N+]([O-])c1ccc2c(c1)nc(Cc1ccccc1)n2C[C@@H]1CCCN2CCCCC12 (some centres undefined)
// result inactive

// query Identify the outcome logged in this assay for the compound shown: `COc1cc(/N=N\c2cccc(S(=O)(=O)O)c2)c(C)cc1/N=N\c1ccc(/C=C/c2ccc(/N=[N+](/[O-])c3ccc(/C=C/c4ccc(/N=N\c5cc(C)c(/N=N/c6cccc(S(=O)(=O)O)c6)cc5OC)cc4)c(S(=O)(=O)O)c3)cc2S(=O)(=O)O)cc1`
// result inactive

// query Identify the outcome logged in this assay for the compound shown: CCCC(=O)c1c(NOC2OCC(OC(C)=O)C(OC(C)=O)C2OC(C)=O)nc(OC)n(C)c1=O (centres undefined)
// result inactive

// query Identify the outcome logged in this assay for the compound shown: CC(=O)Oc1c2c(c(CC=C(C)C)c3c1C(=O)C1=C[C@@H]4CC5C(C)(C)OC(C/C=C(/C)C(=O)O)(C4=O)[C@@]15O3)OC(C)(CCC=C(C)C)C=C2 (some centres undefined)
// result active

// query Identify the outcome logged in this assay for the compound shown: `COc1cc2c(/C=C3/C(=O)Nc4ccc(Cl)cc43)c(Cl)[nH]c2cc1C`
// result active

// query Identify the outcome logged in this assay for the compound shown: `O=C(/C=C/c1ccccc1)Nc1ccccc1SCCCCl`
// result inactive

// query Identify the outcome logged in this assay for the compound shown: `CCN(CC)CCNc1ccc2nnn3c4ccc([N+](=O)[O-])cc4c(=O)c1c23`
// result inactive

// query Identify the outcome logged in this assay for the compound shown: O=C1c2ccccc2CC12Cc1ccc3c(c1C2=O)CCCC3 (centres undefined)
// result inactive

// query Identify the outcome logged in this assay for the compound shown: `COc1cccc(-c2ccc3c4c2O[C@H]2c5[nH]c6ccccc6c5C[C@@]5(O)[C@@H](C3)N(CC3CC3)CC[C@]425)c1`
// result inactive

// query Identify the outcome logged in this assay for the compound shown: `CCCNc1ncnc2c1ncn2C`
// result inactive
